- Assayed target: T1, human DLL4 extracellular domain protein, His-tagged (R&D System Cat: 1506-D4/CF) (human, UniProt Q9NR61 27-522)
- T1 construct: range 27-522; Bought protein; also called hDLL4-His; human DLL4-His; not shown: C-terminal histidine tag
- T1 sequence (Q9NR61 27-522 limits assumed): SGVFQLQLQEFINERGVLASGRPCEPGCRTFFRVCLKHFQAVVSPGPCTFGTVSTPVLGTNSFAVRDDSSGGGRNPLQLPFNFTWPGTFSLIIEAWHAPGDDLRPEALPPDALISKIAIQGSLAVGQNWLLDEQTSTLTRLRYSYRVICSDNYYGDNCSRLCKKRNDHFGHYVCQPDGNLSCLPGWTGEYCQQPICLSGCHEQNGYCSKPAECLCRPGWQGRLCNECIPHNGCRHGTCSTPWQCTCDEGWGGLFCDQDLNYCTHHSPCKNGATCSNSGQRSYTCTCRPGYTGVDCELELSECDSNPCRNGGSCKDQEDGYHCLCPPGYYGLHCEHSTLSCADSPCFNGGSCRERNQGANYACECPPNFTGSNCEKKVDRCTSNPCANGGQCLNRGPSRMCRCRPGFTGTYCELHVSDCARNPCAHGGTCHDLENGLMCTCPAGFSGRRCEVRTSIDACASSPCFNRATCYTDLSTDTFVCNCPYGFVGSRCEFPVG
- Test method notes: SPR (Biacore T200), hDLL4 immobilised on a CM5 chip, antibody as analyte; the table says 'Bivalent binding'
Property name: kon (M⁻¹ s⁻¹)
The answer is to be given in M⁻¹ s⁻¹; state only the numeric part.

The cases that follow already have their kon on record.
MLCK-4 (antibody, V domains shown, Human monoclonal antibody from a phage scFv library; Only the variable regions are tied to the clone; In flow cytometry it was detected with an anti-human IgG Fc-specific antibody, so it carries a human Fc; also called anti-DLL4 antibody) VH: EVQLLESGGGLVQPGGSLRLSCAASGFTFSNYAMSWVRQAPGKGLEWVSWIYHGGGDTYYADSVKGRFTISRDNSKNTLYLQMNSLRAEDTAVYYCARGPNYTFGKPFDYWGQGTLVTVSS VL: QSVLTQPPSASGTPGQRVTISCRGSPSNIGNNTVYWYQQLPGTAPKLLIYSDSQRPSGVPDRFSGSKSGTSASLAISGLRSEDEADYYCGSWDYSLSAYVFGGGTKLTVL ... 2220
MLCK-1 (antibody, V domains shown, Human monoclonal antibody from a phage scFv library; Only the variable regions are tied to the clone; In flow cytometry it was detected with an anti-human IgG Fc-specific antibody, so it carries a human Fc; also called anti-DLL4 antibody) VH: EVQLLESGGGLVQPGGSLRLSCAASGFTFSDYAMSWVRQAPGKGLEWVSWIYSDDGNKYYADSVKGRFTISRDNSKNTLYLQMNSLRAEDTAVYYCARADPPFDYWGQGTLVTVSS VL: QSVLTQPPSASGTPGQRVTISCTGSSSNIGSNNVSWYQQLPGTAPKLLIYSDNNRPSGVPDRFSGSKSGTSASLAISGLRSEDEADYYCATWDSSLNGYVFGGGTKLTVL ... 64100
MLCK-3 (antibody, V domains shown, Human monoclonal antibody from a phage scFv library; Only the variable regions are tied to the clone; In flow cytometry it was detected with an anti-human IgG Fc-specific antibody, so it carries a human Fc; also called anti-DLL4 antibody) VH: EVQLLESGGGLVQPGGSLRLSCAASGFTFSDYAMSWVRQAPGKGLEWVSWIYYDSGSKYYADSVKGRFTISRDNSKNTLYLQMNSLRAEDTAVYYCARADLPFDYWGQGTLVTVSS VL: QSVLTQPPSASGTPGQRVTISCSGSSSNIGNNAVTWYQQLPGTAPKLLIYSDNHRPSGVPDRFSGSKSGTSASLAISGLRSEDEADYYCGTWDASLSGYVFGGGTKLTVL ... 516000

// below: kon requested for another binder
input: What measured kon goes with MLCK-2 (antibody, V domains shown, Human monoclonal antibody from a phage scFv library; Only the variable regions are tied to the clone; In flow cytometry it was detected with an anti-human IgG Fc-specific antibody, so it carries a human Fc; also called MLCK-2 mAb; anti-DLL4 antibody) VH: EVQLLESGGGLVQPGGSLRLSCAASGFTFSDYAMSWVRQAPGKGLEWVSWIYSGSGNKYYADSVKGRFTISRDNSKNTLYLQMNSLRAEDTAVYYCARADWPFDYWGQGTLVTVSS VL: QSVLTQPPSASGTPGQRVTISCTGSSSNIGSNDVTWYQQLPGTAPKLLIYADSKRPSGVPDRFSGSKSGTSASLAISGLRSEDEADYYCGTWDYSLSAYVFGGGTKLTVL ?
output: 136000
